The reported numbers originate from patent US20090176847A1.

Target: Dipeptidylpeptidase IV, Human Placenta (Homo sapiens, UniProt P27487)
Sequence (P27487 whole entry): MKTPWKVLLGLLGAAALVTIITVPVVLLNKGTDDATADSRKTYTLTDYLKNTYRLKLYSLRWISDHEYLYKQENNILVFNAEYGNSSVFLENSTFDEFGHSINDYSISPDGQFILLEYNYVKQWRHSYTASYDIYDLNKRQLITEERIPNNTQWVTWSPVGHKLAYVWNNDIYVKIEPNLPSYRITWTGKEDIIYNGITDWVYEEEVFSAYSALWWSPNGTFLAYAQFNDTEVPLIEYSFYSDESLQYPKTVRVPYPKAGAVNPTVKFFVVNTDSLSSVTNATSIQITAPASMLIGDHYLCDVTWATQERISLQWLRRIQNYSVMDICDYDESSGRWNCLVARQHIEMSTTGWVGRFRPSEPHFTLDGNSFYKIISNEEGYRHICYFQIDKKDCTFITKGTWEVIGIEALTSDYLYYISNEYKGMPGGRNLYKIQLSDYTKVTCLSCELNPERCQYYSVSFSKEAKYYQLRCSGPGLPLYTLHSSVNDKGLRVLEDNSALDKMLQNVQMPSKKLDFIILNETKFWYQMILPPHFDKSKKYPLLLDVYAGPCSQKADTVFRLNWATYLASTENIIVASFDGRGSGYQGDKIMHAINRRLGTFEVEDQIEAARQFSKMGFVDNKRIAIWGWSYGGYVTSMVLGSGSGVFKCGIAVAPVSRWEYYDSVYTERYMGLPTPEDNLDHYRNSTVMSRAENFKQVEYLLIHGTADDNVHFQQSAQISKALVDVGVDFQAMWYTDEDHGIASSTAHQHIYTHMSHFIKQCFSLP
Counter-ions that a name gives are not always drawn.
resultType: pIC50
A value of pIC50 is the negative decimal logarithm of a concentration given in moles per litre.

[
  {
    "compound": "N#CC1CCCN1C(=O)CNC1CC2CC(OC(=O)Nc3ccccc3)CC2C1 (stereo not drawn) [Example 6, hydrochloride]",
    "measurement": 6.92
  },
  {
    "compound": "CC(C)(C)NC(=O)OC1CC2CC(NCC(=O)N3CCCC3C#N)CC2C1 (stereo not drawn) [Example 8, hydrochloride]",
    "measurement": 6.49
  }
]

Now, please, on to the next compound.
// lookup pIC50 for CC(C)NC(=O)OC1CC2CC(NCC(=O)N3CCCC3C#N)CC2C1 (stereo not drawn) [Example 7, hydrochloride]
6.69
